TESTED SYSTEM: hERG (Homo sapiens, UniProt Q12809)
Construct: expressed in transfected cells; host or cells: HEK293 cells stably expressing hERG
Sequence (Q12809 whole entry): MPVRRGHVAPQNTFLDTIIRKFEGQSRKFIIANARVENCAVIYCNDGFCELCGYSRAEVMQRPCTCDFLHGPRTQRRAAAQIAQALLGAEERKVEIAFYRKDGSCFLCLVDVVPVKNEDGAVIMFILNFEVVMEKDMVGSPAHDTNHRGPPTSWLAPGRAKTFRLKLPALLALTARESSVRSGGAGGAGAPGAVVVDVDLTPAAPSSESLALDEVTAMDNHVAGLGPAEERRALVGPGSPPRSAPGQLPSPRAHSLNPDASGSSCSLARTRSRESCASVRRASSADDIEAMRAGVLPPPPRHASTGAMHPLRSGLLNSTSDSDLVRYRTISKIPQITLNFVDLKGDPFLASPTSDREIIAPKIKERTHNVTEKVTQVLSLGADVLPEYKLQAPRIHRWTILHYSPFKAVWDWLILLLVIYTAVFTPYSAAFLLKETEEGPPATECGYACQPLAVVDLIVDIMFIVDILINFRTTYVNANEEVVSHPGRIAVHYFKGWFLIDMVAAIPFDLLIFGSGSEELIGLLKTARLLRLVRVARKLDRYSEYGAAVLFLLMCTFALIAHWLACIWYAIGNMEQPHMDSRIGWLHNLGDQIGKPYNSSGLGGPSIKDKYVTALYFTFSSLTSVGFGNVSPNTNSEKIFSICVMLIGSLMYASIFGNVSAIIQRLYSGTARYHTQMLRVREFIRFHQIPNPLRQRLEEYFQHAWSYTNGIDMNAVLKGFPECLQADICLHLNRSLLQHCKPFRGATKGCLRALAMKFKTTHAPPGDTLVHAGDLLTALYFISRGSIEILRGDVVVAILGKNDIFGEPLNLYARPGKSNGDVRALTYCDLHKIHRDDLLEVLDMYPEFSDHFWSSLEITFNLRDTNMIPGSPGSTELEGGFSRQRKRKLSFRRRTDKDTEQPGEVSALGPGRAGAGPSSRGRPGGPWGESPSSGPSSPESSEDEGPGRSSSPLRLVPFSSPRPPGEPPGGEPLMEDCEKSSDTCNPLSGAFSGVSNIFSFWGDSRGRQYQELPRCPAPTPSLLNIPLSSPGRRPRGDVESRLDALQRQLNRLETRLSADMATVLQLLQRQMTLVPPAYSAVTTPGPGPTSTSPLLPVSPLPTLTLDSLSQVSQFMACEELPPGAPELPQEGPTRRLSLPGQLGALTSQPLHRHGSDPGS
ASSAY PROTOCOL: hERG inhibition test, whole-cell patch clamp in HEK293 cells stably expressing the hERG ion channel
Assay type: cell-based
CONDITION NOTES: human, HEK293 cells stably expressing the hERG ion channel, 0.37 μM; read-out: hERG Inhibition rate, Cell 2
Description: An hERG current was recorded by the whole-cell patch clamp technique. A suspension of HEK293 cells stably expressing the hERG ion channel was added to a 35 mm culture dish, and the culture dish was put on a stage of an inverted microscope. […] The pulse program was repeated every 15 seconds throughout the whole test. […]
Please go through the items and note down their inhibition at 0.37 µM.
Numbers only, in %.

Provide inhibition at 0.37 µM values for the following items, in order.
1. CCNC(=O)c1cc2c(-c3sc(C(C)(C)O)cc3N3CCc4ccccc43)cn(C)c(=O)c2[nH]1
2. CCNC(=O)c1cc2c(-c3cc(C(C)(C)O)ccc3Oc3c(C)cc(F)cc3C)cn(C)c(=O)c2[nH]1 [ABBV-744, reference compound]

1. 6.79
2. 2.46

---

ASSAY PROTOCOL: Pharmacokinetic test in SD rats (plasma drug concentration by LC/MS/MS)
Format: in vivo
CONDITION NOTES: rat, iv, tail vein injection, 2 mg/kg, read-out: Area under the curve AUClast
METRIC: AUC(0-t) (ng·h/mL)
Answers are plain numbers, in ng·h/mL.

Endpoint output: AUC(0-t) of "CCNC(=O)c1cc2c(-c3sc(C(C)(C)O)cc3N3CCc4ccccc43)cn(C)c(=O)c2[nH]1" . Value?
327

---

ASSAY PROTOCOL: Pharmacokinetic test in SD rats (plasma drug concentration by LC/MS/MS)
Assay type: in vivo
CONDITION NOTES: rat, iv, tail vein injection, 2 mg/kg, read-out: Retention time MRT
METRIC: MRT (h)
Numbers only, in h.

So what does the record say about MRT for "CCNC(=O)c1cc2c(-c3sc(C(C)(C)O)cc3N3CCc4ccccc43)cn(C)c(=O)c2[nH]1" ?
1.45
